# credit: PubChem BioAssay (NCI)

# Tested on: NCI-H522 lung
# Experimental Protocol: NCI-60 one-dose screen, 48 h (100 = growth as untreated, 0 = no growth, -100 = all killed)
# Study Conditions: 10 µM
Compounds without any hit were thinned out: in the full panel of roughly 83,000, 20% have a hit.
Attribute Measured: growth (%)

# Compound, Result Number
measured = [
    ("Cc1ccc(-c2cc(-c3cc4ccccc4nc3Cl)[nH]c(=S)n2)cc1", 37.8),
    ("COc1ccc(C(=O)Nc2sc3c(c2C#N)CCC(=O)C3)cc1C(F)(F)F", -64.4),
    ("C=C1CC[C@H](C(=C)C)[C@H]2C=C(C)C(=O)C3=C(C(=O)[C@@](C)(O)C3)[C@H]12", -88.6),
    ("O=C(CSc1nnc(-c2c[nH]c3ccccc23)n1-c1ccccc1)c1ccc(Cl)cc1", 67),
    ("O=c1[nH]c2ccc(Cl)cc2cc1CSc1ccc(Nc2nccc(-c3ccc4ccccc4c3)n2)cc1", 80.5),
    ("Cc1ccc(-c2cc(-c3cc4ccccc4nc3Cl)[nH]c(=O)n2)cc1", -11.7),
    ("O=C(c1ccc(O)cc1)C1[C@H](c2ccccc2Br)[C@@H](c2ccccc2)NC12C(=O)Nc1ccc(Br)cc12 (some centres undefined)", 0.143),
    ("CCOC(=O)N/C(=C1/OCCN1C)[P+](c1ccccc1)(c1ccccc1)c1ccccc1", 54.2),
    ("O/N=C(\\CSc1nnc(-c2c[nH]c3ccccc23)n1-c1ccccc1)c1ccc(Cl)cc1", 12.4),
    ("N#Cc1c(NC(=O)c2ccc(C(F)(F)F)cc2)sc2c1CCC(=O)C2", -57.3),
    ("CNC(=O)c1cccc(N2CCc3c2ccc(NC(=O)Nc2ccc(N4CCN(C)CC4)c(C(F)(F)F)c2)c3F)c1", -91.7),
    ("Cc1ccc(-c2cc(C(=O)N=Nc3c(O)[nH]c4ccccc34)c3ccccc3n2)cc1", 56.6),
    ("Clc1ccc(/C=N/Nc2ncnc3sc4c(c23)CCN(Cc2ccccc2)C4)cc1", 1.08),
    ("Nc1nnc(-c2c[nH]c3ncccc23)c(-c2c[nH]c3ccc(Br)cc23)n1", 47.9),
    ("CCOP(=O)(OCC)O[C@H]1CC[C@]2(C)[C@H]3CC[C@@H]4[C@@H]([C@](C)(O)CCC=C(C)C)CC[C@@]4(C)[C@]3(C)CC[C@H]2C1(C)C", 1.32),
    ("COc1ccc(CCN2C(=O)/C(=C/c3csc(C#N)n3)SC2=S)cc1", -69.8),
    ("CCCn1c(=O)c2[nH]c(-c3ccc(OCc4nc5ccc(C)cc5[nH]4)cc3)nc2n(CCC)c1=O", 36.7),
    ("OCc1[nH]nc2cc(Nc3ncc4ccc(Br)c(OC5CCC(O)CC5)c4n3)ccc12 (centres undefined)", -31.2),
    ("O=C(Nc1nc2ccccc2s1)c1ccc(Br)cc1", 75.3),
]

---

# System: HS 578T breast
# Experimental Protocol: NCI-60 one-dose screen, 48 h
# Study Conditions: 10 µM
# Experimental: Growth inhibition of the HS 578T human tumor cell line is measured as a screen for anti-cancer activity. Cells are grown in 96 well plates and exposed to the test compound for 48 hours. Compounds are tested at a single concentration, which is 10^-5 M for most compounds. The reported endpoint is percent growth (GI% or GIPRCNT), where numbers from 0 - 100% represent growth inhibition, and numbers from -100% - 0 represent cell death. For example, a value of 40 represents 60% growth inhibition. […]
The panel holds about 83,000 compounds, 20% with a hit somewhere; the sample as a whole holds those more often. The source made the active and inactive calls. The calls were made as follows: active = growth percent below 10; inactive = the rest.
Possible outcomes: t (active), f (inactive)

# Compound, Label Class
rows = [
    ("COc1ccc(C=CC(=O)c2ccc(-n3c(C)nc4c(cnn4-c4ccccc4)c3=O)cc2)cc1", "f"),
    ("CC(=O)Oc1ccccc1C(=O)Oc1ccc(C(=O)/C=C/c2ccncc2)cc1", "f"),
    ("Cc1ccc2nc(-c3ccc(-c4nnc(SCC(=O)Nc5ccc(Br)cc5)o4)cc3)[nH]c2c1", "f"),
    ("O=c1c2ccccc2nc(COc2ccccc2)n1/N=C/c1ccc(N2CCOCC2)cc1", "f"),
    ("Cc1ccc(C(=O)N/C(=C2/OCCN2C)[P+](c2ccccc2)(c2ccccc2)c2ccccc2)cc1", "f"),
    ("CN1CCN(Cc2ccc(C(=O)Nc3cccc(Nc4ccc5cc(O)ccc5n4)c3)cc2C(F)(F)F)CC1", "t"),
    ("O=C1NC(=NC23CC4CC(CC(C4)C2)C3)N/C1=C\\c1ccc2ncoc2c1", "t"),
    ("O=C1CCC(N2Cc3c(C#CCCCNC(=O)c4ccc(NC(=O)[C@@H]5NC6(CCCCC6)[C@@]6(C(=O)Nc7cc(Cl)ccc76)[C@H]5c5cccc(Cl)c5F)cc4)cccc3C2=O)C(=O)N1 (stereo partly drawn)", "f"),
    ("O=c1oc2ccc(-c3ccc(F)cc3F)cc2c(=O)n1-c1ccc(F)c(Cl)c1", "t"),
    ("COc1ccc2nc(Cl)c(-c3cc(-c4ccccc4)nc(=S)[nH]3)cc2c1", "f"),
    ("Cc1ccc(-c2nc3ccc(C(=O)N=Nc4c(O)[nH]c5ccc([N+](=O)[O-])cc45)cc3[nH]2)cc1", "f"),
    ("C#Cc1ccc(S(=O)(=O)Nc2cccc(-c3csc(NC(C)=O)n3)c2)cc1", "f"),
    ("Cn1cc(/C=N/Nc2cccc(Cl)n2)c2ccccc21", "f"),
    ("COc1ccc(CN2[C@@H](C(=O)NCc3ccc(C(=O)NO)cc3)Cc3c([nH]c4ccccc34)[C@@H]2C)cc1", "t"),
    ("O=C(NO)c1ccc(CNC(=O)[C@H]2Cc3c([nH]c4ccccc34)[C@H](c3ccc(Cl)cc3)N2)cc1", "t"),
    ("CN1C(=O)/C(=C/c2ccc3ncsc3c2)NC1=NC12CC3CC(CC(O)(C3)C1)C2", "t"),
    ("O=C(Cc1ccc2c(c1)CN(C1CCC(=O)NC1=O)C2=O)NCc1cccc2ccccc12 (stereo not drawn)", "t"),
    ("CCOC(=O)N/C(=C1/OCCN1C)[P+](c1ccccc1)(c1ccccc1)c1ccccc1", "f"),
]
